System: SF-295 CNS
Assay: NCI tumour cell line growth inhibition, 48 h
Examples of compounds with documented TGI follow.
Measurement label: TGI

> print(dat)
                                   compound  study.target  measured.result
1  COc1ccccc1N1CCN(CC(O)Cn2c(=O)c3c(OC)nc(C)cc3c(=O)n2-c2ccccc2)CC1 (stereo not given)    SF-295 CNS         > 100 µM
2  COc1ccc(C2C(C(=O)O)=C(CO)Oc3cc4c(cc32)OCO4)c(OC)c1 (stereo not given)    SF-295 CNS         > 100 µM
3  Cc1ccc([N+](=O)[O-])cc1S(=O)(=O)Nc1ccc(C2=NN(C(=O)c3ccccc3)C(c3ccccc3O)C2)cc1 (stereo not given)    SF-295 CNS         > 100 µM
4                   CN(C)C(=S)/N=C(\N)N(C)C    SF-295 CNS         > 100 µM
5  CCSc1nc(N)c(C#N)c(-c2ccc(OC)c(OC)c2)c1C#N    SF-295 CNS          > 50 µM

====

Test system: SN12C renal
Assay: NCI tumour cell line growth inhibition, 48 h
Measurement label: TGI

Compound	Study target	Measured result
CN(C(=O)C12C3(C(=O)O)C4C5(C(=O)O)C3C1(C(=O)O)C5C42C(=O)O)C(C)(C)C (stereo unspecified)	SN12C renal	> 100 µM
Oc1ccc(Cl)cc1C1=Nn2c(COc3ccc4c(c3)CCCC4)nnc2SC1	SN12C renal	19.9 µM
O=C1C2CCCCC2C(=O)N1n1c(Cc2ccccc2)n[nH]c1=O (stereo unspecified)	SN12C renal	> 100 µM
Nc1nc(N)c2cc(S(=O)(=O)c3ccccc3)ccc2n1	SN12C renal	> 100 µM
COc1ccccc1N1CCN(CC(O)Cn2c(=O)c3c(OC)nc(C)cc3c(=O)n2-c2ccccc2)CC1 (stereo unspecified)	SN12C renal	> 100 µM
N#CC(C(=S)Nc1ccccc1)=C1Nc2ccccc2N1	SN12C renal	> 10 µM
CC(C)(C)CC(C)(C)c1cc2c(O)c(c1)Cc1cc(C(C)(C)CC(C)(C)C)cc(c1O)Cc1cc(C(C)(C)CC(C)(C)C)cc(c1O)Cc1cc(C(C)(C)CC(C)(C)C)cc(c1O)Cc1cc(C(C)(C)CC(C)(C)C)cc(c1O)Cc1cc(C(C)(C)CC(C)(C)C)cc(c1O)Cc1cc(C(C)(C)CC(C)(C)C)cc(c1O)Cc1cc(C(C)(C)CC(C)(C)C)cc(c1O)C2	SN12C renal	> 100 µM
O=C(/C=C/c1cc(O)ccc1O)c1ccc(Cl)cc1	SN12C renal	44.7 µM
CCOc1cc(CCNC)c2c(ccc3ccc(OC)c(O)c32)c1OC	SN12C renal	36.7 µM
O=C(O)C(C(F)(F)F)C(F)(F)F (tested in a mixture with another compound)	SN12C renal	> 100 µM
O=C(Cc1ccccc1)N/N=C(/c1nc2ccc([N+](=O)[O-])cc2[nH]c1=O)C(O)c1ccco1 (stereo unspecified)	SN12C renal	> 100 µM

====

Tested on: SF-295 CNS
Assay: NCI tumour cell line growth inhibition, 48 h
Examples of compounds with documented TGI follow.
Measurement label: TGI

> print(dat)
                                   compound  measurement.label  measured.result
1  Nc1n[nH]c2cc(F)c([C@@H]3Nc4c(F)cc5[nH]ncc5c4[C@H]4C5CCC(C5)[C@@H]34)cc12 (stereo partly drawn)                TGI          3.82 µM
2  O=S(C(c1ccccc1)=P(c1ccccc1)(c1ccccc1)c1ccccc1)c1ccc(Cl)cc1 (stereo not drawn)                TGI         > 100 µM
3  O=C(O)C(C(F)(F)F)C(F)(F)F (tested in a mixture with another compound)                TGI         > 100 µM

====

Examples of compounds with documented TGI follow.
System: SN12C renal
Test: NCI tumour cell line growth inhibition, 48 h
Measurement label: TGI

> print(dat)
                                   compound  measurement.label  measured.result
1  CN(CCN1C(=O)c2cccc3cccc(c23)C1=O)CCN1C(=O)c2cccc3cccc(c23)C1=O                TGI         > 100 µM
2     O=CCC(O)C(O)C(O)CO (stereo not drawn)                TGI         > 100 µM
3  COc1cc(-c2cn(-c3ccc(F)cc3)c(=O)[nH]2)cc(OC)c1OC                TGI         > 100 µM

====

Tested on: MCF7 breast
Test: NCI tumour cell line growth inhibition, 48 h
Measurement label: TGI

> print(dat)
                                   compound  measurement.label  measured.result
1          OCCCN=C1N=C(Cl)/C(=C\c2ccccc2)N1                TGI         > 100 µM
2     COc1ccc(-c2n[nH]c3nc4ccccc4n3c2=O)cc1                TGI         > 100 µM
3  COC(=O)C(Cc1ccccc1)NP(=O)(O)OCC1OC(n2ccc(N)nc2=O)C(O)C1O (stereo not given)                TGI         > 100 µM
4  c1ccc(C[N+]23C(CC[C@H]2c2ccccc2)CC[C@H]3c2ccccc2)cc1 (stereo not given in full)                TGI         > 100 µM
5  Clc1cccc(/C=c2\nc(-c3ccccc3)n3c2nc2ccccc23)c1                TGI         > 100 µM

====

Test system: NCI/ADR-RES ovarian
Assay: NCI tumour cell line growth inhibition, 48 h
Where a SMILES comes first, the peptide text is derived from it. [ ]: non-standard residue; d: D form. The star is where a group is joined. Hyp = O=C(O)[CH]1C[CH](O)CN1; Cbz = O=C(OCc1ccccc1)*
Examples of compounds with documented TGI follow.

Compound	TGI
O=CCC(O)C(O)C(O)CO (stereo not given)	> 100 µM
Nc1ccccc1-n1c2c(c3ccccc3c1=O)C(=O)c1ccccc1-2	51.3 µM
O=C(O)c1ccc2[nH]c(=O)oc2c1	> 100 µM
COc1ccc(C(=O)c2cc(C)c(OC)c(C)c2)c(OC)c1OC(=O)C(Cl)Cl	> 100 µM
COc1ccccc1CC1(O)OC(=O)c2ccccc21 (stereo not given)	> 100 µM
C#C[C@@H](OC(=O)c1ccc([N+](=O)[O-])cc1)[C@@H]1C[C@H]2O[C@@H]([C@H](C/C=C/CC)OC(=O)c3ccc([N+](=O)[O-])cc3)C[C@H]2O1	> 100 µM
COc1ccccc1C(=O)Nc1ccc(Cl)c(C(=O)OC(C)C)c1	64.4 µM
CSc1ccc(NC(=O)CCl)cc1	> 10 µM
CC(C)C(=O)/C=C/c1ccc(Cl)cc1Cl	54.6 µM
NC1=C(/C(N)=N/O)C(c2ccccc2)c2ccc3ccccc3c2O1 (stereo not given)	1.65 µM
NC(=O)CNC(=O)C1CC(O)CN1C(=O)C1CCCN1C(=O)OCc1ccccc1 (stereo not drawn) (Cbz-Pro-[Hyp]-Gly-NH2; configuration not given here)	> 100 µM
N#CC(C#N)[C@@H]1CCC=C(Sc2ccccc2)[C@H]1Sc1ccccc1	8.37 µM
Cc1cc(=O)[nH]c(Sc2ccc([N+](=O)[O-])cc2[N+](=O)[O-])n1	> 66.3 µM
CS(=O)(=O)Nc1cccc(-c2ccc3ncnc(Nc4cncc(Cl)c4)c3c2)c1	> 100 µM
c1cc2nnc1SCCSCCCSCCS2	> 100 µM
CN1CCN(c2ccc(NC(=O)c3cncnc3Nc3ccc4c(ccn4Cc4cccc(F)c4)c3)cc2)CC1	11 µM
COc1ccccc1CNC(=O)/C=C/c1ccc(O)c(O)c1	> 100 µM
CN1C(CC(O)c2ccccc2)CCCC1CC(O)(c1ccccc1)c1ccccc1 (stereo not given)	33.5 µM
COc1ccc2c(ccc3oc([N+](=O)[O-])cc32)c1	1.05 µM
CN1CCN(c2ccc3nc(-c4ccc5nc(CCCc6ccc(N(CCCl)CCCl)cc6)[nH]c5c4)[nH]c3c2)CC1	> 100 µM
COc1ccccc1N1CCN(CC(O)Cn2c(=O)c3c(OC)nc(C)cc3c(=O)n2-c2ccccc2)CC1 (stereo not given)	> 100 µM
CC(=O)OCCC/C(=C/c1cc2ccccc2c2ccccc12)[N+](=O)[O-]	4.31 µM
O=S(=O)(N1CCCCN(S(=O)(=O)C(F)(F)F)CCCN(S(=O)(=O)C(F)(F)F)CCCCN(S(=O)(=O)C(F)(F)F)CCCN(S(=O)(=O)C(F)(F)F)CCCCN(S(=O)(=O)C(F)(F)F)CCCN(S(=O)(=O)C(F)(F)F)CCCCN(S(=O)(=O)C(F)(F)F)CCC1)C(F)(F)F	> 31.6 µM
COc1cc([N+](=O)[O-])cc2c1NC(=O)C2(C)SC (stereo not given)	> 100 µM
O=C(Cc1ccc(-c2ccc(OCCN3CCOCC3)cc2)cn1)NCc1ccccc1	> 100 µM
CN(C(=O)C12C3(C(=O)O)C4C5(C(=O)O)C3C1(C(=O)O)C5C42C(=O)O)C(C)(C)C (stereo not given)	> 100 µM
O=c1[nH]nc(Cc2ccc(Cl)cc2)n1CCO	> 100 µM
Cc1cc(O)cc(-c2nn(C)cc2-c2cc(N3CCOCC3)nc(-c3cccnc3)n2)c1	33 µM
COc1cccc(C=C(C#N)C#N)c1OC	> 100 µM
CN(CCc1ccccn1)c1ccc2c(c1)Cc1ccccc1-2	> 100 µM
CNc1ccc(Cl)cc1C(=O)N1CCC[C@H]1CO	> 100 µM
Clc1cccc(/C=c2\nc(-c3ccccc3)n3c2nc2ccccc23)c1	> 100 µM
COc1ccc(N2C(=O)C3c4[nH]c5ccc(OC)cc5c4C4CCC(c5ccccc5)CC4C3C2=O)cc1 (stereo not given)	33.2 µM
Cc1[nH]c2[nH]c(=S)nc(NC(N)=S)c2c1Cc1ccccc1	> 100 µM
CCN(CC)CCOc1ccccc1-n1c(C)ccc1-c1ccccc1	29.9 µM
